AC50 values recorded for D(3) dopamine receptor (Homo sapiens, UniProt P35462)

{"compound": "CC1=C(C(=O)O)N2C(=O)[C@@H](NC(=O)[C@H](N)c3ccccc3)[C@H]2SC1 [CEPHALEXIN ANHYDROUS]", "AC50": "> 10 µM"}
{"compound": "CC(C)C(=O)c1c(C(C)C)nn2ccccc12 [IBUDILAST]", "AC50": "> 30 µM"}
{"compound": "Cn1nnc2c(C(N)=O)ncn2c1=O [TEMOZOLOMIDE]", "AC50": "> 30 µM"}
{"compound": "O=C(O)/C=C/c1ccc(Cn2ccnc2)cc1 [OZAGREL]", "AC50": "> 30 µM"}
{"compound": "C/C(O)=C(\\C#N)C(=O)Nc1ccc(C(F)(F)F)cc1 [TERIFLUNOMIDE]", "AC50": "> 30 µM"}
{"compound": "O=C(O)CCCCCCNC1c2ccccc2CCc2ccccc21 [AMINEPTINE]", "AC50": "> 30 µM"}
{"compound": "CC(C[N+](C)(C)C)OC(N)=O (stereo not drawn) [BETHANECHOL]", "AC50": "> 30 µM"}
{"compound": "COc1ccccc1OCC(O)CN1CCN(CC(=O)Nc2c(C)cccc2C)CC1 (stereo not drawn) [RANOLAZINE]", "AC50": "18 µM"}
{"compound": "COc1ccc(CC(C)(C)NC[C@H](O)c2cc(O)cc3c2OCC(=O)N3)cc1 [OLODATEROL]", "AC50": "> 30 µM"}
{"compound": "CC1(C)O[C@@H]2C[C@H]3[C@@H]4CCC5=CC(=O)C=C[C@]5(C)[C@H]4[C@@H](O)C[C@]3(C)[C@]2(C(=O)CO)O1 [DESONIDE]", "AC50": "> 30 µM"}
{"compound": "CN(C)CCC(c1ccc(Cl)cc1)c1ccccn1 (stereo not drawn) [CHLORPHENIRAMINE]", "AC50": "> 10 µM"}
{"compound": "Clc1ccccc1C(c1ccccc1)(c1ccccc1)n1ccnc1 [CLOTRIMAZOLE]", "AC50": "> 30 µM"}
{"compound": "CCCC(=O)O[C@]1(C(=O)CO)CC[C@H]2[C@@H]3CCC4=CC(=O)CC[C@]4(C)[C@H]3[C@@H](O)C[C@@]21C [HYDROCORTISONE BUTYRATE]", "AC50": "> 30 µM"}
{"compound": "CC(C)(C)c1cc(C(C)(C)C)c(NC(=O)c2c[nH]c3ccccc3c2=O)cc1O [IVACAFTOR]", "AC50": "> 30 µM"}
{"compound": "CCCCCNC(=N)N/N=C/c1c[nH]c2ccc(OC)cc12 [TEGASEROD]", "AC50": "3.5 µM"}
{"compound": "N[C@@H]1[C@H]2CN(c3nc4c(cc3F)c(=O)c(C(=O)O)cn4-c3ccc(F)cc3F)C[C@@H]12 [TROVAFLOXACIN]", "AC50": "> 30 µM"}
{"compound": "COC(=O)[C@H]1[C@H]2C[C@@H]3c4[nH]c5cc(OC)ccc5c4CCN3C[C@H]2C[C@@H](OC(=O)/C=C/c2cc(OC)c(OC)c(OC)c2)[C@@H]1OC [RESCINNAMINE]", "AC50": "> 30 µM"}
{"compound": "CN1CCN(C2=Nc3ccccc3Sc3ccc(Cl)cc32)CC1 [CLOTHIAPINE]", "AC50": "0.35 µM"}

---

- test_target: D(1A) dopamine receptor (Homo sapiens, UniProt P21728); note: assay procedure not described here
- Sequence (P21728 whole entry): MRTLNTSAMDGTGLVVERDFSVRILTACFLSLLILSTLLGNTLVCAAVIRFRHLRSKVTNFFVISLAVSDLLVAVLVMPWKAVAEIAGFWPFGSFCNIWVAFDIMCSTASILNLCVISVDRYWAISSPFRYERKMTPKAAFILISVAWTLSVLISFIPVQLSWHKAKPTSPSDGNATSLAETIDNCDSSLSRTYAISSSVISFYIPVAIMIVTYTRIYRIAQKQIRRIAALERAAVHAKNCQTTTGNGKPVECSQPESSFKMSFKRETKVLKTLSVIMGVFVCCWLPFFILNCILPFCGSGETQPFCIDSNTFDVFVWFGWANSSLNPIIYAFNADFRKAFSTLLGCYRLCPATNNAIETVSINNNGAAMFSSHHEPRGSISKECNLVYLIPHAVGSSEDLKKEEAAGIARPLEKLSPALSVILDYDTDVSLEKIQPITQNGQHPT
- Type: functional, cell-based

{"molecule": "CCCSc1ccc2nc(NC(=O)OC)[nH]c2c1", "AC50": "> 10 µM"}
{"molecule": "CN(C)CCc1c[nH]c2ccc(C[C@H]3COC(=O)N3)cc12", "AC50": "> 30 µM"}
{"molecule": "CC(C)C[C@H]1C(=O)N2CCC[C@H]2[C@]2(O)O[C@](NC(=O)[C@@H]3C=C4c5cccc6[nH]c(Br)c(c56)C[C@H]4N(C)C3)(C(C)C)C(=O)N12", "AC50": "1.52 µM"}
{"molecule": "Cc1ccc(-c2cc(C(F)(F)F)nn2-c2ccc(S(N)(=O)=O)cc2)cc1", "AC50": "> 10 µM"}
{"molecule": "Nc1nc(/C(=C/CC(=O)O)C(=O)N[C@@H]2C(=O)N3C(C(=O)O)=CCS[C@H]23)cs1", "AC50": "> 30 µM"}
{"molecule": "C[C@H]1CNCCc2ccc(Cl)cc21", "AC50": "> 30 µM"}
{"molecule": "C[C@@H]1O[C@@H](O[C@@H]2C=C3CC[C@@H]4[C@H](CC[C@]5(C)[C@@H](c6ccc(=O)oc6)CC[C@]45O)[C@@]3(C)CC2)[C@H](O)[C@H](O)[C@H]1O", "AC50": "> 30 µM"}
{"molecule": "c1cnc(N2CCN(Cc3ccc4c(c3)OCO4)CC2)nc1", "AC50": "> 30 µM"}
{"molecule": "CC(=O)O[C@H]1C[C@@H]2CC[C@@H]3[C@H](CC[C@@]4(C)[C@H]3C[C@H]([N+]3(C)CCCCC3)[C@@H]4OC(C)=O)[C@@]2(C)C[C@@H]1N1CCCCC1", "AC50": "> 30 µM"}
{"molecule": "C[C@H](N)[C@H](O)c1cccc(O)c1", "AC50": "> 30 µM"}
{"molecule": "CC(=O)O[C@H]1CC[C@@]2(C)C(=CC[C@@H]3[C@@H]2CC[C@]2(C)C(c4cccnc4)=CC[C@@H]32)C1 [ABIRATERONE ACETATE]", "AC50": "> 30 µM"}
{"molecule": "CC1(C)CCC(CN2CCN(c3ccc(C(=O)NS(=O)(=O)c4ccc(NCC5CCOCC5)c([N+](=O)[O-])c4)c(Oc4cnc5[nH]ccc5c4)c3)CC2)=C(c2ccc(Cl)cc2)C1", "AC50": "> 30 µM"}
{"molecule": "CN1C(=O)C(O)N=C(c2ccccc2)c2cc(Cl)ccc21 (centres undefined)", "AC50": "> 10 µM"}
{"molecule": "COC(=O)[C@H]1[C@H]2C[C@@H]3c4[nH]c5cc(OC)ccc5c4CCN3C[C@H]2C[C@@H](OC(=O)/C=C/c2cc(OC)c(OC)c(OC)c2)[C@@H]1OC", "AC50": "> 30 µM"}

---

AC50 values recorded for Sodium-dependent serotonin transporter (Homo sapiens, UniProt P31645)

{"compound": "CCN(CC)C(=O)N[C@H]1C[C@@H]2c3cccc4[nH]cc(c34)C[C@H]2N(C)C1 [TERGURIDE]", "AC50": "> 30 µM"}
{"compound": "COc1ccc(CCN(C)CCCC(C#N)(c2cc(OC)c(OC)c(OC)c2)C(C)C)cc1OC (stereo not given) [GALLOPAMIL]", "AC50": "3 µM"}
{"compound": "CC(C)OC(=O)CCC/C=C\\C[C@@H]1[C@@H](CC[C@@H](O)CCc2ccccc2)[C@H](O)C[C@@H]1O [LATANOPROST]", "AC50": "> 30 µM"}
{"compound": "O=[N+]([O-])c1cn2c(n1)OC[C@@H](OCc1ccc(OC(F)(F)F)cc1)C2 [PRETOMANID]", "AC50": "> 10 µM"}
{"compound": "CC(C)(C)c1cc(C(C)(C)C)c(NC(=O)c2c[nH]c3ccccc3c2=O)cc1O [IVACAFTOR]", "AC50": "> 30 µM"}
{"compound": "C/C(O)=C(\\C#N)C(=O)Nc1ccc(C(F)(F)F)cc1 [TERIFLUNOMIDE]", "AC50": "> 30 µM"}
{"compound": "CN1C(=O)C(O)N=C(c2ccccc2Cl)c2cc(Cl)ccc21 (stereo not given) [LORMETAZEPAM]", "AC50": "> 30 µM"}
{"compound": "CN(C)CCc1c[nH]c2ccc(C[C@H]3COC(=O)N3)cc12 [ZOLMITRIPTAN]", "AC50": "> 30 µM"}
{"compound": "CN1C(C(=O)Nc2ccccn2)=C(O)c2sc(Cl)cc2S1(=O)=O [LORNOXICAM]", "AC50": "> 30 µM"}
{"compound": "Cc1nnc2n1-c1ccc(Cl)cc1C(c1ccccc1Cl)=NC2 [TRIAZOLAM]", "AC50": "> 30 µM"}
{"compound": "C=CCN1C[C@H](C(=O)N(CCCN(C)C)C(=O)NCC)C[C@@H]2c3cccc4[nH]cc(c34)C[C@H]21 [CABERGOLINE]", "AC50": "23.4 µM"}
{"compound": "CCc1c(Cl)c(O)c(Cl)c(O)c1C(=O)O[C@H]1[C@H](O)[C@H](OC)[C@H](OC/C2=C\\C=C\\C[C@H](O)/C(C)=C/[C@H](CC)[C@@H](O[C@@H]3OC(C)(C)[C@@H](OC(=O)C(C)C)[C@H](O)[C@@H]3O)/C(C)=C/C(C)=C/C[C@@H]([C@@H](C)O)OC2=O)O[C@@H]1C [FIDAXOMICIN]", "AC50": "> 30 µM"}
{"compound": "C=CCN1CCCC1CNC(=O)c1cc(S(N)(=O)=O)cc(OC)c1OC (stereo not given) [VERALIPRIDE]", "AC50": "25 µM"}
{"compound": "Cc1cc(O)c(C(=O)N[C@@H](C(=O)N[C@@H]2C(=O)N3C(C(=O)O)=C(CSc4nnnn4C)CS[C@H]23)c2ccc(O)cc2)cn1 [CEFPIRAMIDE]", "AC50": "> 30 µM"}
{"compound": "CC(C[N+](C)(C)C)OC(N)=O (stereo not given) [BETHANECHOL]", "AC50": "> 10 µM"}
